# Test system: Vero E6 cells
# Applied Conditions: cytotoxicity counter-assay, Vero E6 cells without virus
So I've got a bunch of compounds here, and I need their % Cytotox values.
Numbers only, in %.

1) CC(C)(C)c1ccc(CN2CCN(C(c3ccccc3)c3ccc(Cl)cc3)CC2)cc1.Cl.Cl (stereo not drawn) [Buclizine HCl] = 0.0
2) CCCCCCCc1ccc(CCc2cccc(O)c2C(=O)O)cc1 [MG-149] = 23.4
3) O=C1NC(=O)c2cc(Nc3ccccc3)c(Nc3ccccc3)cc21 [DAPH] = 79.5
4) COc1cc2nc(N3CCCCC3)nc(NC3CCN(Cc4ccccc4)CC3)c2cc1OC [NCGC00185849] = 110.3
5) COc1ccc(C2CC(c3ccccc3)=NN2c2ccc(S(N)(=O)=O)cc2)cc1 (stereo not drawn) [ML-141] = 23.8
6) Cc1cc(C)c(CNC(=O)c2cc(-c3ccc(N4CCN(C)CC4)nc3)cc3c2c(C)cn3C(C)C)c(=O)[nH]1 [GSK-503?EZH2 inhibitor] = 0.0
7) C/C(=N\NC(=S)N1CCC1)c1ccccn1 [NSC-319726] = 52.8
8) C/C=C(/C)C(=O)O[C@H]1[C@@H]2[C@H](C)C(=O)O[C@@H]2C[C@@H](C)[C@@H]2C=CC(=O)[C@]21C [Brevelin A] = 59.7

Continue with the compound presented below.
Give the value of % Cytotox reported for the following: COc1ccc2sc(NC(c3ccc(OC(F)F)cc3)c3ccc4cccnc4c3O)nc2c1 (stereo not drawn) [KIN1408]
77.9
